experiment: physchem; set-up: dose or concentration left out as unconfirmed; conditions: PAMPA, pH 5
endpoint.label: Papp (×10⁻⁶ cm/s)

{"molecule": "CC[C@@]1(O)C(=O)OCc2c1cc1n(c2=O)Cc2c-1nc1cc(F)c(C)c3c1c2[C@H]([C@H](CO)NC(C)C)CC3 (single isomer, unassigned) [Compound 17-114]", "measured": 18.3}
{"molecule": "CC[C@@]1(O)C(=O)OCc2c1cc1n(c2=O)Cc2c-1nc1cc(F)c(C)c3c1c2[C@H]([C@@H](CCO)NC(C)C)CC3 (single isomer, unassigned) [Compound 14-95]", "measured": 12.7}
{"molecule": "CC[C@@]1(O)C(=O)OCc2c1cc1n(c2=O)Cc2c-1nc1cc(F)c(C)c3c1c2[C@@H]([C@H](CCO)N(C)C)CC3 (single isomer, unassigned) [Compound 15-96]", "measured": 16.7}

* * *

assay: Human hepatocyte clearance (HHEP CL); assay type: in vitro ADME; design: dose or concentration left out as unconfirmed; details: both sexes, human, hepatocytes
Counter-ions that a name gives are not always drawn.

{"compound": "CC[C@@]1(O)C(=O)OCc2c1cc1n(c2=O)Cc2c-1nc1cc(F)c(C)c3c1c2[C@@H]([C@H](CCO)N(C)C)CC3 (single isomer, unassigned) [Compound 15-96]", "limit.sign": ">", "half-life / h": 3.62}
{"compound": "CC[C@@]1(O)C(=O)OCc2c1cc1n(c2=O)Cc2c-1nc1cc(F)c(C)c3c1c2[C@H]([C@@H](N)CO)CC3 (single isomer, unassigned) [Compound 16-108, hydrochloride]", "limit.sign": "=", "half-life / h": 2.1}
{"compound": "CC[C@@]1(O)C(=O)OCc2c1cc1n(c2=O)Cc2c-1nc1cc(F)c(C)c3c1c2[C@H]([C@H](CCO)N(C)C)CC3 (single isomer, unassigned) [Compound 15-98]", "limit.sign": "=", "half-life / h": 1.3}
{"compound": "CC[C@@]1(O)C(=O)OCc2c1cc1n(c2=O)Cc2c-1nc1cc(F)c(C)c3c1c2[C@H]([C@H](CCO)NC(C)C)CC3 (single isomer, unassigned) [Compound 14-94]", "limit.sign": "=", "half-life / h": 1.13}
{"compound": "CC[C@@]1(O)C(=O)OCc2c1cc1n(c2=O)Cc2c-1nc1cc(F)c(C)c3c1c2[C@H]([C@H](N)CO)CC3 (single isomer, unassigned) [Compound 16-111, hydrochloride]", "limit.sign": "=", "half-life / h": 2.22}
{"compound": "CC[C@@]1(O)C(=O)OCc2c1cc1n(c2=O)Cc2c-1nc1cc(F)c(C)c3c1c2[C@@H]([C@H](CCO)NC(C)C)CC3 (single isomer, unassigned) [Compound 14-92]", "limit.sign": ">", "half-life / h": 3.62}
{"compound": "CC[C@@]1(O)C(=O)OCc2c1cc1n(c2=O)Cc2c-1nc1cc(F)c(C)c3c1c2[C@@H]([C@@H](CCO)N(C)C)CC3 (single isomer, unassigned) [Compound 15-97]", "limit.sign": "=", "half-life / h": 1.88}
{"compound": "CC[C@@]1(O)C(=O)OCc2c1cc1n(c2=O)Cc2c-1nc1cc(F)c(C)c3c1c2[C@H]([C@@H](CO)NC(C)C)CC3 (single isomer, unassigned) [Compound 17-115]", "limit.sign": "=", "half-life / h": 1.5}
{"compound": "CC[C@@]1(O)C(=O)OCc2c1cc1n(c2=O)Cc2c-1nc1cc(F)c(C)c3c1c2[C@@H]([C@@H](CCO)NC(C)C)CC3 (single isomer, unassigned) [Compound 14-93]", "limit.sign": "=", "half-life / h": 3.08}
{"compound": "CC[C@@]1(O)C(=O)OCc2c1cc1n(c2=O)Cc2c-1nc1cc(F)c(C)c3c1c2[C@H]([C@@H](CCO)NC(C)C)CC3 (single isomer, unassigned) [Compound 14-95]", "limit.sign": "=", "half-life / h": 1.42}
{"compound": "CC[C@@]1(O)C(=O)OCc2c1cc1n(c2=O)Cc2c-1nc1cc(F)c(C)c3c1c2[C@@H]([C@H](CO)NC(C)C)CC3 (single isomer, unassigned) [Compound 17-112]", "limit.sign": ">", "half-life / h": 3.62}
{"compound": "CC[C@@]1(O)C(=O)OCc2c1cc1n(c2=O)Cc2c-1nc1cc(F)c(C)c3c1c2[C@@H]([C@@H](N)CO)CC3 (single isomer, unassigned) [Compound 16-102, hydrochloride]", "limit.sign": "=", "half-life / h": 1.75}
{"compound": "CC[C@@]1(O)C(=O)OCc2c1cc1n(c2=O)Cc2c-1nc1cc(F)c(C)c3c1c2[C@H]([C@H](CO)NC(C)C)CC3 (single isomer, unassigned) [Compound 17-114]", "limit.sign": "=", "half-life / h": 0.8}
{"compound": "CC[C@@]1(O)C(=O)OCc2c1cc1n(c2=O)Cc2c-1nc1cc(F)c(C)c3c1c2[C@@H]([C@@H](CO)NC(C)C)CC3 (single isomer, unassigned) [Compound 17-113]", "limit.sign": "=", "half-life / h": 2.42}
{"compound": "CC[C@@]1(O)C(=O)OCc2c1cc1n(c2=O)Cc2c-1nc1cc(F)c(C)c3c1c2[C@@H]([C@H](N)CO)CC3 (single isomer, unassigned) [Compound 16-105, hydrochloride]", "limit.sign": "=", "half-life / h": 1.87}
{"compound": "CC[C@@]1(O)C(=O)OCc2c1cc1n(c2=O)Cc2c-1nc1cc(F)c(C)c3c1c2[C@H]([C@@H](CCO)N(C)C)CC3 (single isomer, unassigned) [Compound 15-99]", "limit.sign": "=", "half-life / h": 3.47}
